Assign pKd to each entry below.
# System Tested: T1, EsCas13d, nuclease-dead (Eubacterium siraeum, UniProt B0MS50, R295A;H300A;R849A;H854A)
# T1 sequence: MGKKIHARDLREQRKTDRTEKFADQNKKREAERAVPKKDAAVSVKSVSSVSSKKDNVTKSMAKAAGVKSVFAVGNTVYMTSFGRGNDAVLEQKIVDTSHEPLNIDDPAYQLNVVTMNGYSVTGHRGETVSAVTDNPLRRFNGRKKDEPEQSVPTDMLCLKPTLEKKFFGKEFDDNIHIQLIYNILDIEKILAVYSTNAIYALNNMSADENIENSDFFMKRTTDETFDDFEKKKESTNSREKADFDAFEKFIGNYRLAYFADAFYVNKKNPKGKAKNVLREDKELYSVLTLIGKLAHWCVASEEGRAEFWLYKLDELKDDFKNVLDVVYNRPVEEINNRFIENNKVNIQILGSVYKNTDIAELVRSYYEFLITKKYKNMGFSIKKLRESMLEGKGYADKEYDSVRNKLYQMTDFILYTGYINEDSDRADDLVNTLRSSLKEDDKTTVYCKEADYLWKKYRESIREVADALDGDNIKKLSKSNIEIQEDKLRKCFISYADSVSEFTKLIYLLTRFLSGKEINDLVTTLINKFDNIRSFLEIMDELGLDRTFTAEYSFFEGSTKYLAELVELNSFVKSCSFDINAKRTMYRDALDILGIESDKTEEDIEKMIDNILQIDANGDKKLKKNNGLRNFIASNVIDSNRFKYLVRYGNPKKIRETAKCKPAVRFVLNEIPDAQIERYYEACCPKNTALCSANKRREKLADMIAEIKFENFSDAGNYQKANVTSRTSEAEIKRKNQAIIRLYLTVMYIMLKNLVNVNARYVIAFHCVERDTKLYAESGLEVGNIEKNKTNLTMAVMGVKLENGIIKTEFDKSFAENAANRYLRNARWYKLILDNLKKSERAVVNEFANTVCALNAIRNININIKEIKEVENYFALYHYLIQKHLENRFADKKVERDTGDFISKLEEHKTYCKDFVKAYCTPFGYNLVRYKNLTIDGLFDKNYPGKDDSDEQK
# Assay Comment: crRNA (strand 1, pre-loaded); Mg2+; 40 mM Tris-HCl pH 7.5, 150 mM NaCl, 6 mM MgCl2, 1 mM DTT, 0.1% Tween-20, 0.2 mg/ml BSA; 25 C; 10 min per concentration, then washed
# Assay Context: tags: His6-TwinStrep-SUMO cleaved; N-terminal SNAP kept (SNAP-Surface 488); label: 3' end held by stalled T7 RNA polymerase
One number for each entry, as −log10 of the molar value.

# Binder, Measure, Observed Measurement
records = [
    ("target 2 MT 5'PFS UGA 3'PFS ACA (mixed) RNA 1: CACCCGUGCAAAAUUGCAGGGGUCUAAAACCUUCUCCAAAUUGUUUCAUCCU RNA 2: GGGAAUGGAUCCACAUCUACGAAUUCUGAAGGAUGAAACAAUUUGGAGAAGACAAGAUCGGAAGAGCACACGU", "pKd", 8.04),
]

Would you kindly look at the next entry?
// query Entry under review: target 1 insU 3' of 18,insG 3' of 14 (mixed) RNA 1: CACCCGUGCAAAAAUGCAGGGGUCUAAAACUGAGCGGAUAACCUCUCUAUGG RNA 2: GGGAAUGGAUCCACAUCUACGAAUUCGUACCAUAUGAGAGGGUUAUCCGCUCACCGAGAUCGGAAGAGCACACGU . Reported pKd?
// result 7.34
